- tested_target: BRM (Homo sapiens)
- test_description: ATPase catalytic activity assay of BRM (ADP-Glo)
- Format: biochemical
result_type: BRM Max % Inhibition

Query block: Which BRM Max % Inhibition value belongs to "COc1cc(F)cc(-c2csc(NC(=O)CNC(=O)c3ccc4c(c3)[C@](C)(F)COC4)n2)c1" ?
Result block: >95%

Query block: Now consider "C[C@@H]1CN(c2cccc(-c3csc(NC(=O)CNC(=O)c4ccc5c(c4)C(F)(F)COC5)n3)n2)C[C@H](C)O1" .
Result block: >95%

* * *

- tested_target: BRG-1 (Homo sapiens, UniProt P51532)
- Sequence (P51532 whole entry): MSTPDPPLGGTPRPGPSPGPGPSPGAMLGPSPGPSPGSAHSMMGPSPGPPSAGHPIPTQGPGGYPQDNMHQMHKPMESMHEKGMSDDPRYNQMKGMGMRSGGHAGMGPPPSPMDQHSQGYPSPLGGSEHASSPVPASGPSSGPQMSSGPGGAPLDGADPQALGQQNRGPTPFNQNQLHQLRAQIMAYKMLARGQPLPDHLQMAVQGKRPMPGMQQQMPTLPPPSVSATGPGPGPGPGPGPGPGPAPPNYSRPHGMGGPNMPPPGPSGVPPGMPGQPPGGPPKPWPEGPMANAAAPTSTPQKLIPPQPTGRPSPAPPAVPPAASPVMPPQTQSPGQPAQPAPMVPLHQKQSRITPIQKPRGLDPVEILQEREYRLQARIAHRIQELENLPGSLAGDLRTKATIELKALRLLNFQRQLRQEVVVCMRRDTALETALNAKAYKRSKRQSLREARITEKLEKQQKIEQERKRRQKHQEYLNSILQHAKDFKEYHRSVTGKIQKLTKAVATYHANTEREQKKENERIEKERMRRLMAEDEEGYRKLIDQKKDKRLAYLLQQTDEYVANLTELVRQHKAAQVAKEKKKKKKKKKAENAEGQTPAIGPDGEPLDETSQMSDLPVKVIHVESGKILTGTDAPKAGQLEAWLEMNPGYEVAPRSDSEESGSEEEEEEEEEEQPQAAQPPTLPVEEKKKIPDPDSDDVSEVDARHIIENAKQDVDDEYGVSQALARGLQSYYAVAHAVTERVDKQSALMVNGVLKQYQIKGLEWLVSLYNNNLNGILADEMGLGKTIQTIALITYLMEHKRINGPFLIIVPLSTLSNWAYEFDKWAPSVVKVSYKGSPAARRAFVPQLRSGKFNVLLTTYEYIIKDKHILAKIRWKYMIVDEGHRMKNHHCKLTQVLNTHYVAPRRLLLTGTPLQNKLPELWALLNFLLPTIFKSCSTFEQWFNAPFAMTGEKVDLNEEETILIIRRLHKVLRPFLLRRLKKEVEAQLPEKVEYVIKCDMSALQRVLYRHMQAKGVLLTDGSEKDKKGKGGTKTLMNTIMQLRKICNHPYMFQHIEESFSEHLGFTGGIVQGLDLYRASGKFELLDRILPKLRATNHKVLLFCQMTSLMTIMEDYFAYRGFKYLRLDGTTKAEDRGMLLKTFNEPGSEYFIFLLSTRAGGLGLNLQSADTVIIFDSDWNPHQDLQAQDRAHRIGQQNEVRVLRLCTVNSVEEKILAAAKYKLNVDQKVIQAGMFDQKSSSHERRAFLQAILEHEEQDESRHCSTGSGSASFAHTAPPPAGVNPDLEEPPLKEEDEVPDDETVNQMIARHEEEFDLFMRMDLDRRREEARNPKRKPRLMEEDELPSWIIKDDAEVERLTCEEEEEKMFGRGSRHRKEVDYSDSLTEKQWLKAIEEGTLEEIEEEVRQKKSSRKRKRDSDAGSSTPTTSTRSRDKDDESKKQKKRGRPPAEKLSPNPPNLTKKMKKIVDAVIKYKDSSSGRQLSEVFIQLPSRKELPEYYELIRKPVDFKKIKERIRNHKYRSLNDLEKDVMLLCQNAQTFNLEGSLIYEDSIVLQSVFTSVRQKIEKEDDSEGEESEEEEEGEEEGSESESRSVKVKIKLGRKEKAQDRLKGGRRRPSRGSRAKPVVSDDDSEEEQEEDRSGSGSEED
- test_description: ATPase catalytic activity assay of BRG-1 (ADP-Glo)
- Type: biochemical
- measurement_parameters: ATPase catalytic activity, ADP-Glo; read-out: BRG1 IC50 (μM)*
The entries below come with measured IC50 values attached.

C[C@@]1(C#N)COCc2ccc(C(=O)NCC(=O)Nc3nc(-c4cccc(N5CC(F)(F)C5)c4)cs3)cc21 [Compound 342]: 0.1 to 1 µM
Cc1cc(-c2cccc(-c3csc(NC(=O)CNC(=O)c4cccc(C(C)(C)CN)c4)n3)c2)ncn1 [Compound 98]: 1 to 5 µM

Next item in the queue.
Query block: Which IC50 value belongs to CN1C(=O)CCc2ccc(-c3csc(NC(=O)CNC(=O)c4ccc5c(c4)[C@@](C)(CO)CC5)n3)cc21 [Compound 260] ?
Result block: > 5 µM

* * *

- tested_target: BRM (Homo sapiens)
- test_description: ATPase catalytic activity assay of BRM (ADP-Glo)
- Format: biochemical
- measurement_parameters: read-out: BRM IC50 (μM)*
result_type: IC50

Query block: Which IC50 value belongs to "Cc1cc(-c2cccc(-c3csc(NC(=O)CNC(=O)c4cccc(S(=O)(=O)C(C)C)c4)n3)n2)ncn1" ?
Result block: < 0.1 µM

Query block: Now consider "C[C@@H]1CN(c2cccc(-c3csc(NC(=O)CNC(=O)c4ccc5c(c4)[C@H]([C@H](C)O)CC5)n3)n2)C[C@H](C)O1" .
Result block: 0.1 to 1 µM

* * *

- tested_target: BRM (Homo sapiens, UniProt P51531)
- Sequence (P51531 whole entry): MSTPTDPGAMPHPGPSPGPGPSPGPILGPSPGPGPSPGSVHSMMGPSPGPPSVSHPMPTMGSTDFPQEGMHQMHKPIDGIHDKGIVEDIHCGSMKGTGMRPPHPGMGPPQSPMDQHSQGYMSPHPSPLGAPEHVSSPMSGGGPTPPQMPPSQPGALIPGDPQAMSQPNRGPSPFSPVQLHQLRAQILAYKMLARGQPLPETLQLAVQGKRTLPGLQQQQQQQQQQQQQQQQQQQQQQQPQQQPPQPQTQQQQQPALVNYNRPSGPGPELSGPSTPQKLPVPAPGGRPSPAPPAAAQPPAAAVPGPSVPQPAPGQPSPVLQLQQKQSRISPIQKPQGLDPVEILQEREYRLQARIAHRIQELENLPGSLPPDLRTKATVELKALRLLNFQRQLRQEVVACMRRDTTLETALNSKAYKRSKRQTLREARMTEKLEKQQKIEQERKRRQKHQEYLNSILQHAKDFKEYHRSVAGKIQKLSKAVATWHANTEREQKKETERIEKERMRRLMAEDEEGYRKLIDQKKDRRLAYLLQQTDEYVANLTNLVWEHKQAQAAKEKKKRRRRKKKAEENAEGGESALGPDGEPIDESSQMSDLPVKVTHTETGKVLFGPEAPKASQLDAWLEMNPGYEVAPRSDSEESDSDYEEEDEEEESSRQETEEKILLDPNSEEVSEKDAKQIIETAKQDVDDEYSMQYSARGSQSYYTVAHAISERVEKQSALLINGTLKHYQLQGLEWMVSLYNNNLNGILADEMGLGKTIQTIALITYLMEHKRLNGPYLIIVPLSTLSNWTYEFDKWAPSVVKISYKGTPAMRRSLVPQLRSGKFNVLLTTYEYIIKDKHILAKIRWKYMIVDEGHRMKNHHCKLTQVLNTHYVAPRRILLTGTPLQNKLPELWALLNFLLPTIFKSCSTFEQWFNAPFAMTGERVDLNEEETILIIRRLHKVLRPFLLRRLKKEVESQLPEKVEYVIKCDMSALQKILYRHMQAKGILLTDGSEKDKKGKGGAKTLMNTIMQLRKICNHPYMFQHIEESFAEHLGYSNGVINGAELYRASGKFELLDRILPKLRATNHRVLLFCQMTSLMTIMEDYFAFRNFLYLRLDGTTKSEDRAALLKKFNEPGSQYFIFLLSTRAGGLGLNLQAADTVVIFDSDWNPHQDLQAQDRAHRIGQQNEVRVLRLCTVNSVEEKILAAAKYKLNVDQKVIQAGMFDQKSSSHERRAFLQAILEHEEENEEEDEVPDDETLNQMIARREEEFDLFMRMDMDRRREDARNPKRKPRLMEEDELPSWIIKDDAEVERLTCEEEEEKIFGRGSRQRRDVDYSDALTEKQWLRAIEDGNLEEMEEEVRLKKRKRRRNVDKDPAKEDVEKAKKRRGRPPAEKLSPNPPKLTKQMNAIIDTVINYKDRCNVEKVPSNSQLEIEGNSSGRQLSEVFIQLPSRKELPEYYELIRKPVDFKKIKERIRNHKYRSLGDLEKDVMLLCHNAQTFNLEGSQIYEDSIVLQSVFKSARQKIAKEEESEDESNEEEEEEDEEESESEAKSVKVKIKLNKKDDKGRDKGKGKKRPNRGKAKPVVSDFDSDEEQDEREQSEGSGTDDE
- test_description: ATPase catalytic activity assay of BRM (ADP-Glo)
- Format: biochemical
- measurement_parameters: 30 nM BRM, 400 μM ATP
result_type: BRM Max % Inhibition

CO[C@H]1C[C@@](F)(c2cccc(C(=O)NCC(=O)Nc3nc(-c4cccc(N5C[C@@H](C)O[C@@H](C)C5)n4)cs3)c2)C1: >95%
Cc1cncc(-c2cccc(-c3csc(NC(=O)CNC(=O)c4ccc5c(c4)C(C)(CO)CC5)n3)c2)n1 (stereo in doubt): >95%

Query block: Which BRM Max % Inhibition value belongs to C[C@@H]1CN(c2cccc(-c3csc(NC(=O)CNC(=O)c4cccc([C@H]5COC[C@H]5O)c4)n3)n2)C[C@H](C)O1 (stereo in doubt) ?
Result block: >85%

* * *

- tested_target: UniProt P51531
- test_description: ATPase catalytic activity assay of BRM (ADP-Glo)
- Assay type: biochemical
- measurement_parameters: read-out: BRM IC50 (μM)*
result_type: IC50

C[C@@H]1CN(c2cccc(-c3csc(NC(=O)CNC(=O)c4ccc5c(c4)[C@@](F)(C(F)F)CCO5)n3)c2)C[C@H](C)O1: < 0.1 µM
CN1CC=Cc2ccc(C(=O)NCC(=O)Nc3nc(-c4cccc(-c5ccncc5)c4)cs3)cc2S1(=O)=O: 0.1 to 1 µM
Cc1nccc(-c2cccc(-c3csc(NC(=O)CNC(=O)c4ccc5c(c4)[C@@](C)(CO)CC5)n3)n2)n1: 0.1 to 1 µM
C[C@@H]1CN(c2cccc(-c3csc(NC(=O)CNC(=O)c4cccc(C5(F)CC6(COC6)C5)c4)n3)n2)C[C@H](C)O1: 0.1 to 1 µM
CN1C[C@](C)(C#N)c2cc(C(=O)NCC(=O)Nc3nc(-c4cc(F)cc(N5CCC5)c4)cs3)ccc21: 0.1 to 1 µM

Query block: Which IC50 value belongs to C[C@@H]1CN(c2cccc(-c3csc(NC(=O)CNC(=O)c4ccc5c(c4)C(F)(C(F)F)COC5)n3)c2)C[C@H](C)O1 (stereo in doubt) [Compound 307] ?
Result block: < 0.1 µM

Query block: Now consider "COc1cccc(-c2csc(NC(=O)[C@H](C)NC(=O)c3ccc4c(c3)[C@](C)(F)COC4)n2)c1" .
Result block: < 0.1 µM

Query block: Now consider "CC(C)(CN)c1cccc(C(=O)NCC(=O)Nc2nc(-c3cccc(-c4ccncc4)c3)cs2)c1" .
Result block: 0.1 to 1 µM

Query block: Now consider "CC(C)S(=O)(=O)c1cccc(C(=O)NCC(=O)Nc2nc(-c3cccc(-c4ccnc(CN(C)C)c4)c3)cs2)c1" .
Result block: < 0.1 µM

Query block: Now consider C[C@@H]1CN(c2cccc(-c3csc(NC(=O)CNC(=O)c4ccc5c(c4)C4(CCO4)COC5)n3)n2)C[C@H](C)O1 (stereo partly shown) .
Result block: < 0.1 µM

Query block: Now consider "C[C@@H]1CN(c2cccc(-c3csc(NC(=O)CNC(=O)c4ccc5c(c4)[C@@]4(CCO4)COC5)n3)n2)C[C@H](C)O1" .
Result block: < 0.1 µM

Query block: Now consider "C[C@@H]1CN(c2cccc(-c3csc(NC(=O)CNC(=O)c4ccc5c(c4)CCCOC5)n3)n2)C[C@H](C)O1" .
Result block: < 0.1 µM

Query block: Now consider C[C@@H]1CN(c2cccc(-c3csc(NC(=O)CNC(=O)c4ccc5c(c4)C(C)(CO)COC5)n3)c2)C[C@H](C)O1 (stereo in doubt) [Compound 373] .
Result block: 0.1 to 1 µM

Query block: Now consider "C[C@@H]1CN(c2cccc(-c3csc(NC(=O)CNC(=O)c4cccc([C@]5(F)C[C@@](C)(O)C5)c4)n3)c2)C[C@H](C)O1" .
Result block: < 0.1 µM

Query block: Now consider "Cc1cc(-c2cccc(-c3csc(NC(=O)CNC(=O)c4ccc5c(c4)[C@](C)(C#N)CC5)n3)n2)ncn1" .
Result block: < 0.1 µM

Query block: Now consider CCC(C)(O)c1cccc(C(=O)NCC(=O)Nc2nc(-c3cccc(-c4ccncc4)c3)cs2)c1 (stereo not shown) [Compound 79] .
Result block: 0.1 to 1 µM

* * *

- tested_target: BRG-1 (Homo sapiens, UniProt P51532)
- test_description: ATPase catalytic activity assay of BRG-1 (ADP-Glo)
- Type: biochemical
- measurement_parameters: ATPase catalytic activity, ADP-Glo, 30 nM BRG-1, 400 μM ATP; read-out: BRG1 IC50 (μM)*
result_type: IC50

Take a look at these entries with their results.
CC1(C#N)CCOc2ccc(C(=O)NCC(=O)Nc3nc(-c4cccc(C(F)F)c4)cs3)cc21 (stereo in doubt): 0.1 to 1 µM
C[C@@H]1CN(c2cccc(-c3csc(NC(=O)CNC(=O)c4cccc([C@H]5COC[C@H]5O)c4)n3)n2)C[C@H](C)O1 (stereo in doubt): > 5 µM

Query block: Which IC50 value belongs to CC1(C#N)CCOc2ccc(C(=O)NCC(=O)Nc3nc(-c4cccc(-c5ccncc5)c4)cs3)cc21 (stereo in doubt) ?
Result block: < 0.1 µM

Query block: Now consider "C[C@@H]1CN(c2cccc(-c3csc(NC(=O)CNC(=O)c4ccc5c(c4)[C@@](C)(O)COC5)n3)c2)C[C@H](C)O1" .
Result block: 0.1 to 1 µM

Query block: Now consider CC1(C#N)CCOc2ccc(C(=O)NCC(=O)Nc3nc(-c4cccc(C5(F)COC5)c4)cs3)cc21 (stereo in doubt) .
Result block: 1 to 5 µM

Query block: Now consider C[C@@H]1CN(c2cccc(-c3csc(NC(=O)CNC(=O)c4ccc5c(c4)C(C)(C#N)CO5)n3)c2)C[C@H](C)O1 (stereo in doubt) .
Result block: 0.1 to 1 µM

* * *

The entries below come with measured Emax values attached.
- tested_target: BRG-1 (Homo sapiens, UniProt P51532)
- test_description: ATPase catalytic activity assay of BRG-1 (ADP-Glo)
- Type: biochemical
- measurement_parameters: ATPase catalytic activity, ADP-Glo; read-out: BRG1 Max % Inhibition

C[C@@]1(F)COCc2ccc(C(=O)NCC(=O)Nc3nc(-c4cccc(C#N)c4)cs3)cc21: > 95%
C[C@@H]1CN(c2cccc(-c3csc(NC(=O)CNC(=O)c4ccnc(C(C)(C)CO)c4)n3)c2)C[C@H](C)O1: > 70%
CN1CCCc2ccc(C(=O)NCC(=O)Nc3nc(-c4cccc(-c5ccncc5)c4)cs3)cc2S1(=O)=O: > 70%

Query block: Record lookup: for BRG-1 (Homo sapiens, UniProt P51532), what Emax belongs to "Cn1ccc(-c2cccc(-c3csc(NC(=O)CNC(=O)c4cccc(C(C)(C)CN)c4)n3)c2)n1" ?
Result block: > 30%

Query block: Now consider "Cc1ccc(C(=O)NCC(=O)Nc2nc(-c3cccc(N4C[C@@H](C)O[C@@H](C)C4)n3)cs2)cc1C(C)(C)CO" .
Result block: > 90%

Query block: Now consider "C[C@@H]1CN(c2cccc(-c3csc(NC(=O)CNC(=O)c4cccc(C5(F)CC6(COC6)C5)c4)n3)n2)C[C@H](C)O1" .
Result block: > 90%

Query block: Now consider CC1CCN1c1cccc(-c2csc(NC(=O)CNC(=O)c3ccc4c(c3)[C@](C)(C#N)COC4)n2)c1 (stereo partly shown) .
Result block: > 95%

Data origin, for the record: patent US12685735B2
